In this section we review reported IC50 values for a set of compounds.
System: 898857-211-R-J1-PDC complex spheroids, growth % test/control;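 further: spheroids exposed to compound for seven days before readout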
protocol.details: Anticancer human tumor 898857-211-R-J1-PDC patient-derived melanoma cell line growth inhibition [RAS]
condition.details: curve of first compound; second compound 0.00949 µM

* CCc1c2c(nc3ccc(O)cc13)-c1cc3c(c(=O)n1C2)COC(=O)[C@]3(O)CC + CCn1c(-c2cc(N3CCN(C)CC3)cnc2C(C)OC)c2c3cc(ccc31)-c1csc(n1)CC(NC(=O)C1CC1C)C(=O)N1CCCC(N1)C(=O)OCC(C)(C)C2 | 3.37 nM
* C=CC(=O)Nc1cc(Nc2nccc(-c3cn(C)c4ccccc34)n2)c(OC)cc1N(C)CCN(C)C + CCn1c(-c2cc(N3CCN(C)CC3)cnc2C(C)OC)c2c3cc(ccc31)-c1csc(n1)CC(NC(=O)C1CC1C)C(=O)N1CCCC(N1)C(=O)OCC(C)(C)C2 | 538 nM
* NC1c2ccccc2OC12CCN(c1cnc3c(N4CCCc5ncccc54)n[nH]c3n1)CC2 (centres undefined) + CCn1c(-c2cc(N3CCN(C)CC3)cnc2C(C)OC)c2c3cc(ccc31)-c1csc(n1)CC(NC(=O)C1CC1C)C(=O)N1CCCC(N1)C(=O)OCC(C)(C)C2 | > 10000 nM

As a next step, examine the compound that follows.
Q: Assign IC50 to the following record: CC(C)n1nc(-c2ccc3oc(N)nc3c2)c2c(N)ncnc21 + CCn1c(-c2cccnc2C(C)OC)c2c3cc(ccc31)N1CCOC(CC(NC(=O)C(C(C)C)N(C)C(=O)C3(F)CCN(C(=O)C#CC(C)(C)N(C)C)CC3)C(=O)N3CCCC(N3)C(=O)OCC(C)(C)C2)C1
A: 23.8 nM

Data origin: PubChem BioAssay AID2060882
